Just for reference, patent US20090099094A1 is where these values come from.

Test system: medullary thyroid carcinoma primary cultures
Assay: Calcitonin secretion by MTC primary cultures (IRMA)
Type: cell-based, human
Settings: MTC primary culture #2 (non responder), 10^−8 M, six hours
Square brackets hold non-standard residues; d marks the D form. Peptide text beside a SMILES is read from it. Tic = O=C(O)[C@@H]1Cc2ccccc2CN1; Abu = CC[C@H](N)C(=O)O
Measured % CT secretion inhibition vs. control of individual entries

{"columns": ["COMPOUND", "% CT secretion inhibition vs. control [%]"],
 "data": [
  ["CC(C)[C@@H]1NC(=O)[C@H](CCCCN)NC(=O)[C@@H](Cc2c[nH]c3ccccc23)NC(=O)[C@H](Cc2ccc(O)cc2)NC(=O)[C@@H](NC(=O)[C@H](N)Cc2ccc3ccccc3c2)CSSC[C@@H](C(=O)N[C@H](C(N)=O)[C@@H](C)O)NC1=O [lanreotide, reference compound]", 21.7],
  ["CC[C@@H]1NC(=O)[C@H](CCCCN)NC(=O)[C@@H](Cc2c[nH]c3ccccc23)NC(=O)[C@H](Cc2ccc(O)cc2)NC(=O)[C@@H]2Cc3ccccc3CN2C(=O)[C@H](Cc2ccccc2)NC1=O [Cmpd #2, c[Tic-Tyr-D-Trp-Lys-Abu-Phe]] (cyclo([Tic]Y[dW]K[Abu]F))", "−4.3"],
  ["CC(C)[C@@H]1NC(=O)[C@H](CCCCN)NC(=O)[C@@H](Cc2c[nH]c3ccccc23)NC(=O)[C@H](Cc2ccc(O)c(I)c2)NC(=O)[C@@H](NC(=O)[C@H](N)Cc2ccccc2)CSSC[C@@H](C(=O)N[C@H](C(N)=O)[C@@H](C)O)NC1=O", 5.2],
  ["C[C@@H](O)[C@H](NC(=O)[C@H](Cc1ccccc1)NC(=O)[C@@H](NC(=O)[C@H](CCCCN)NC(=O)[C@@H](Cc1c[nH]c2ccccc12)NC(=O)[C@H](Cc1c[nH]c2ccccc12)NC(=O)[C@H](Cc1ccccc1)NC(=O)[C@H](N)Cc1ccccc1)[C@@H](C)O)C(N)=O", 18.2]
]}
